Entries and their percent inhibition of AR values follow.
tested on: AR mRNA; assay: Dose-dependent antisense inhibition of human AR in HuVEC cells (electroporation, qRT-PCR RTS3559, IC50); type: cell-based; conditions: 62.5 nM; HuVEC, ~16 h; Table 12
Oligonucleotides are written 5' to 3', each unit as a sugar letter and its base; * is a phosphorothioate linkage, no mark a phosphodiester; rarer units and linkages stand in square brackets, end groups in braces. Plain capitals give the bases only. e = 2'-O-(2-methoxyethyl) (MOE); k = constrained ethyl (cEt); [5mC] = 5-methylcytosine; d = 2'-deoxy (DNA)
Report the value in % with no unit label.

Sample records with percent inhibition of AR:
| substance | endpoint_unit | recorded_result |
| --- | --- | --- |
| 569221 (antisense eT*eG*kA*kT*kT*dT*dA*dA*dT*dG*dG*dT*dT*kG*k[5mC]*kA) [compound 569221] | % | 12 |
| 569214 (antisense kG*kG*kT*dT*dG*dA*dT*dT*dT*dA*dA*dT*kG*kG*kT*eT) [compound 569214] | % | 20 |
| 569217 (antisense eG*kT*kT*kG*dA*dT*dT*dT*dA*dA*dT*dG*kG*kT*kT*eG) [compound 569217] | % | 34 |

Output percent inhibition of AR of 549458 (kG*kT*kT*dG*dA*dT*dT*dT*dA*dA*dT*dG*dG*kT*kT*kG) [compound 549458]
19

---

tested on: AR mRNA; test: Dose-dependent antisense inhibition of human AR in HuVEC cells (electroporation, qRT-PCR RTS3559, IC50); assay type: cell-based; details: 62.5 nM; HuVEC, ~16 h; Table 8
Oligonucleotides are written 5' to 3', each unit as a sugar letter and its base; * is a phosphorothioate linkage, no mark a phosphodiester; rarer units and linkages stand in square brackets, end groups in braces. Plain capitals give the bases only. e = 2'-O-(2-methoxyethyl) (MOE); k = constrained ethyl (cEt); [5mC] = 5-methylcytosine; d = 2'-deoxy (DNA)
Entries and their percent inhibition of AR values follow.
Report the value in % with no unit label.

Sample records with percent inhibition of AR:
| substance | tested_on | endpoint_unit | percent inhibition of AR |
| --- | --- | --- | --- |
| 549457 (kT*kT*kG*dA*dT*dT*dT*dA*dA*dT*dG*dG*dT*kT*kG*k[5mC]) [compound 549457] | AR mRNA | % | 44 |
| 549458 (kG*kT*kT*dG*dA*dT*dT*dT*dA*dA*dT*dG*dG*kT*kT*kG) [compound 549458] | AR mRNA | % | 36 |
| 560098 (kT*kG*kA*dT*dT*dT*dA*dA*dT*dG*dG*dT*dT*kG*k[5mC]*kA; further chemistry not given here) [compound 560098] | AR mRNA | % | 54 |
| 560137 (antisense TTGATTTAATGGTTGC; all C 5-methyl, all phosphorothioate, sugars by position not given here; further chemistry not fully specified) [compound 560137] | AR mRNA | % | 39 |
| 569228 (antisense eT*eT*kG*kA*kT*dT*dT*dA*dA*dT*dG*dG*kT*kT*kG*e[5mC]) [compound 569228] | AR mRNA | % | 43 |
| 569236 (antisense eT*kG*kA*kT*dT*dT*dA*dA*dT*dG*dG*kT*kT*kG*e[5mC]*eA) [compound 569236] | AR mRNA | % | 39 |

Below: the item to evaluate.
Output reported percent inhibition of AR of the substance 569216 (antisense eT*kG*kA*kT*dT*dT*dA*dA*dT*dG*dG*dT*kT*kG*k[5mC]*eA) [compound 569216] on AR mRNA.
51
